test system: EKVX NSCLC; test: NCI-60 one-dose screen, 48 h; details: 10 µM unless noted
The panel holds about 83,000 compounds, 20% with a hit somewhere; the sample as a whole holds those more often. Activity calls are given as the source filed them. The calls were made as follows: active = growth percent below 10; inactive = the rest.
A correct response names exactly one class from YES = active, NO = inactive

Ask | Give the logged outcome of this assay for the following compound: CCN1CCN(CC(=O)Nc2nc3ccc(NCc4ccc(Br)cc4)cc3s2)CC1
Reply | NO

Ask | Record request — test call for COc1cc2ncnc(Nc3ccc(F)c(Cl)c3)c2cc1OCC(=O)N1CCN(c2ccc(F)cc2)CC1
Reply | NO

Ask | Name the outcome recorded for Cc1nc2sc(C(=O)Nc3cccc(Cl)c3)c(N)c2cc1C(O)c1ccccc1 (stereo unspecified) in the assay.
Reply | NO

Next:
Ask | Look up the recorded call for CCN1C(=O)N(CC)C2C1NN=c1s/c(=C3\C(=O)N(CCc4ccccc4)c4ccccc43)c(=O)n12 (stereo unspecified) in this test.
Reply | NO

Ask | Check the results log: what was the call for CCOC(=O)c1c(C)nc2ccccc2c1/C=C/c1ccc(OC)cc1 ?
Reply | NO

Ask | Outcome logged for O=c1[nH]c(-c2ccc(Cl)cc2)cn1-c1ccc(-n2cc(-c3ccc(Cl)cc3)[nH]c2=O)cc1 in this assay:
Reply | NO

Ask | Status in this test for COc1cc2nc(Nc3cccc(F)c3)nc(Nc3cc(C)[nH]n3)c2cc1OC ?
Reply | YES

Ask | Test call for this compound, please: NNC(=S)N/N=C/c1ccccn1
Reply | NO

Ask | I'd appreciate the recorded outcome for O=C(CBr)CN1C(=O)c2ccccc2C1=O from this test.
Reply | NO

Ask | What is the recorded call for this compound in the test? Cc1cscc(C)c1=S
Reply | NO

Ask | Recorded call for Cn1cc(-c2csc(-c3cn(C(=O)OC(C)(C)C)c4ccccc34)n2)c2ccnc(Cl)c21 ?
Reply | NO

###

Test system: HT29 colon
Assay: NCI-60 one-dose screen, 48 h
Settings: 10 µM unless noted
Procedure: Growth inhibition of the HT29 human tumor cell line is measured as a screen for anti-cancer activity. Cells are grown in 96 well plates and exposed to the test compound for 48 hours. Compounds are tested at a single concentration, which is 10^-5 M for most compounds. The reported endpoint is percent growth (GI% or GIPRCNT), where numbers from 0 - 100% represent growth inhibition, and numbers from -100% - 0 represent cell death. For example, a value of 40 represents 60% growth inhibition. […]
About 83,000 compounds went through this panel and 20% of them were active in at least one assay; those are over-represented in the sample as a whole. Calls of active or inactive are those of the source. How the source made its calls: active means growth percent below 10; inactive means the rest.
Field 'call' accepts label 1 for active, label 0 for inactive

Field: example entries. Status: answers known.
Ask | Hi, do you know how O=C(CCCCCCN1CC(=O)N2[C@@H](C3CCCCC3)c3[nH]c4ccccc4c3C[C@H]2C1=O)NO came out in this test?
Reply | label 0

Ask | // outcome(item) with item = CN1CCN(CCCOc2ccc3ncnc(Nc4ccc(Oc5cccc(F)c5)c(Cl)c4)c3c2)CC1
Reply | label 1

Ask | How did this test come out for O=C1Nc2ccccc2C2c3cccn3-c3ccccc3N12 (stereo not given) ?
Reply | label 0

Ask | Returns: the outcome recorded for CCOc1ccc(/C=N\N=C\c2ccc(OCC)cc2)cc1 in this assay.
Reply | label 0

Ask | Recorded test outcome, item CCOC(=O)c1c2c(n3ccccc13)C(=O)c1ncccc1C2=O
Reply | label 0

Ask | Status in this test for COc1ccc(C/C(C)=C(\c2ccc(O)cc2)c2ccc(OCCN3CCCC3)cc2)cc1 ?
Reply | label 0

Ask | Kindly provide the recorded test outcome for the following molecule: CCOC(=O)Nc1nc2ccc(SCC(C)C)cc2s1
Reply | label 1

Ask | Record lookup: outcome of this test for CCN(CC)c1ccc(N2C(=O)/C(=C/c3cccs3)SC2=S)cc1 ?
Reply | label 0

Ask | GET /call?item= COc1ccc2nc3cc(Cl)ccc3c(NCCN)c2c1 returns the recorded outcome of this test.
Reply | label 1

New cases:
Ask | Can you look up the reported call for C=CCn1c(SCC(=O)Nc2ccc(C(=O)/C=C/c3ccc(OC)cc3)cc2)nnc1-c1ccccc1 for me?
Reply | label 0

###

system: NCI-H322M lung; assay: NCI-60 one-dose screen, 48 h (100 = growth as untreated, 0 = no growth, -100 = all killed); settings: 10 µM unless noted
About 83,000 compounds went through this panel and 20% of them were active in at least one assay; those are over-represented in the sample as a whole.
Note to self: values exactly at 70% are 1 (yes). So growth at or above 70% is 1 (yes), below is 0 (no).

Record excerpt, results attached:
Ask | Could you please find out whether CCCCCCCCCCCCCCCCCCOc1ccccc1CC(=O)NCC[N+]1(C)CCOCC1 has growth that meets 70% or exceeds it?
Reply | 0 (no)

Ask | Say whether O=C(CCCCCCN1CC(=O)N2[C@@H](C3CCCCC3)c3[nH]c4ccccc4c3C[C@H]2C1=O)NO shows growth of 70% or more.
Reply | 1 (yes)

Ask | Tell me whether growth is at least 70% here: Cn1cc(-c2nonc2-c2c[nH]c3ccc(F)cc23)c2cc(Br)ccc21
Reply | 0 (no)

Ask | Decide: growth of Cc1cccc(-n2c(C)nc3ccc(N4CCCNC4=O)cc3c2=O)c1 >= 70%?
Reply | 1 (yes)

Ask | Test whether the molecule Cc1ncc(C(=O)Nc2ccc(CN3CCN(C)CC3)c(C(F)(F)F)c2)cc1C#Cc1cnc(N)c2ccncc12 records growth of 70% or higher.
Reply | 0 (no)

Ask | Identify whether the reported growth of the following molecule is 70% or greater: COC(=O)/C=C1/SC(=Nc2cccc(Cl)c2)N(CCc2c[nH]c3ccc(O)cc23)C1=O
Reply | 1 (yes)

Ask | Hi, just wondering whether CC[C@H](Nc1nc(N)nc(C)c1C#N)c1nc2cccc(NCCCCCC(=O)NO)c2c(=O)n1-c1ccccc1 shows growth of 70% or higher.
Reply | 1 (yes)

Ask | Does the reported growth for Cc1ccc(-c2nc(C#N)c(S(=O)(=O)NCCO)o2)cc1 fall at or above the 70% mark?
Reply | 1 (yes)

New cases:
Ask | Please tell me: is the molecule O=C(Nc1cccnc1Nc1ccc(Cl)cc1)c1cn(Cc2ccc(F)cc2)nn1 at or over 70% in terms of growth?
Reply | 1 (yes)

###

List of growth values.
system: DU-145 prostate; experiment: NCI-60 one-dose screen, 48 h (100 = growth as untreated, 0 = no growth, -100 = all killed); conditions: 10 µM unless noted
About 83,000 compounds went through this panel and 20% of them were active in at least one assay; those are over-represented in the sample as a whole. Active and inactive are the calls of the source. The calls were made as follows: active = growth percent below 10; inactive = the rest.

Past entries and their recorded results:
Ask | // returns reported growth for input O=C(Nc1cccnc1Nc1ccc(Cl)cc1)c1cn(Cc2ccc(F)cc2)nn1
Reply | 106% (inactive)

Ask | Endpoint output: growth of CCOC(=O)n1cc(-c2nonc2-c2cn(C)c3ccccc23)c2ccccc21 . Value?
Reply | 57.2% (inactive)

Ask | For the compound shown here, CN1C(=O)N(C)C2C1NC(=S)N2/N=C/C=C/c1ccccc1[N+](=O)[O-] (centres undefined) , give the reported growth.
Reply | 18.7% (inactive)

Others:
Ask | Looking for the measured growth of CC1(C)CC[C@]2(C(=O)N3CCOCC3)CC[C@]3(C)C(=CC[C@@H]4[C@@]5(C)C/C(=C/c6ccncc6)C(=O)C(C)(C)[C@@H]5CC[C@]43C)[C@@H]2C1 , can you help?
Reply | 21.7% (inactive)

###

system: HT29 colon; assay: NCI-60 one-dose screen, 48 h (100 = growth as untreated, 0 = no growth, -100 = all killed); conditions: 10 µM unless noted
This is part of a sample that, as a whole, favours compounds with a hit. Of some 83,000 tested, about 20% had one in any assay. Active and inactive are the calls of the source. Rule for the calls: active = growth percent below 10; inactive = the rest.
measurement.name: growth

Field: example entries. Status: answers known.
Ask | Kindly state the measured growth obtained for COc1ccc2c(c1)c(-c1nonc1-c1c[nH]c3ccc(Br)cc13)cn2C with HT29 colon.
Reply | 11.9% (inactive)

Ask | Record lookup: for HT29 colon, what growth belongs to Cc1ccc(C(=O)c2ccc(CC(=O)N/N=C/c3ccc(O)cc3O)n2C)cc1 ?
Reply | 64% (inactive)

Ask | Can you look up growth on HT29 colon for CC1(C)CC[C@]2(C(=O)N3CCOCC3)CC[C@]3(C)C(=CC[C@@H]4[C@@]5(C)C/C(=C/c6ccncc6)C(=O)C(C)(C)[C@@H]5CC[C@]43C)[C@@H]2C1 ?
Reply | 5.31% (active)

Ask | Query the reported growth for HT29 colon; item: Cc1c(N2CN3C[C@H](C)N4CN(c5c(C)n(C)n(-c6ccccc6)c5=O)CN5C[C@@H](C)N(C2)C3C54)c(=O)n(-c2ccccc2)n1C (some centres undefined)
Reply | 102% (inactive)

Ask | Param readout = growth; param system = HT29 colon; param query = CCCCCCNc1nc(NCCCCCC)c2[nH]c(NCCCCCC)nc2n1 ; response: value
Reply | 36.6% (inactive)

Others:
Ask | Request - read-out growth | tested on HT29 colon | compound N=c1c2c(=N)n3c(nc2nc2n1-c1ccccc1Sc1ccccc1-2)sc1cc(Cl)ccc13
Reply | 26.4% (inactive)

Ask | Form field: growth recorded for Cc1ccccc1CNc1c2ccccc2nc2ccccc12 with HT29 colon (enter value)
Reply | 8.87% (active)

Ask | Please provide the recorded growth for O=C(/C=C/c1ccccc1)Nc1ncc(Cc2ccccc2)s1 , tested on HT29 colon.
Reply | 4.97% (active)

Ask | Return growth measured with HT29 colon given this compound: O=C(CN1CCN(c2cc3c(cc2F)c(=O)c(C(=O)O)cn3C2CC2)CC1)N/N=C/c1ccncc1
Reply | 97.8% (inactive)

Ask | Provide the documented growth with HT29 colon as the system for COc1ccc(Nc2ncccc2NC(=O)c2cn(Cc3cccc(Oc4ccccc4)c3)nn2)cc1OC
Reply | 81.1% (inactive)

Ask | Kindly state the measured growth obtained for CCOC(=O)C1CCN(c2ccc(N3C[C@@H](CNCc4ccc(C(=N)N)cc4)OC3=O)cc2)CC1 with HT29 colon.
Reply | 105% (inactive)

Ask | Fill in the recorded growth for this compound, with HT29 colon as test system: CCCCCCCCn1ccc2cc(NC(=O)Cn3cc(CN4CCC(C)CC4)nn3)ccc21
Reply | -66.9% (active)

Ask | What growth appears in the records for this compound with HT29 colon? COc1cc(/C=C2\C(=O)N(c3c(Cl)cccc3Cl)c3ccccc32)cc(OC)c1OCCCCCCn1c2ccccc2c(=O)c2ccccc21
Reply | 103% (inactive)

Ask | Find growth (HT29 colon) for the entry CCOC(=O)C1=C(c2ccccc2)N=c2s/c(=C/c3ccc(Br)cc3)c(=O)n2C1c1ccc(O)cc1 (centres undefined)
Reply | 87.6% (inactive)

Ask | Test system HT29 colon; read-out growth; what value for Cc1cc(C(=O)Nc2cc(Nc3ncccc3-c3ncnc4nc[nH]c34)ccc2F)cc(C(F)(F)F)c1 ?
Reply | 20.8% (inactive)

Ask | Tell me reported growth for Cn1cc(-c2nc(-c3c[nH]c4ccncc34)cs2)c2cc(Br)ccc21 , tested with HT29 colon.
Reply | -81.9% (active)

Ask | Report growth for COc1cc(Nc2c3ccc(Cl)cc3nc3ccc(OC)cc23)c2ncccc2c1 tested on HT29 colon.
Reply | 38.1% (inactive)

Ask | Give recorded growth with HT29 colon for the following compound: Oc1c(CN2CCCC2)cc(COCc2ccccc2)c2cccnc12
Reply | 74.4% (inactive)

Ask | Give the reported growth for Clc1nn2c(Cn3cnc4c(NCc5ccccc5)ncnc43)nnc2c2ccccc12 (system: HT29 colon).
Reply | 56.4% (inactive)

Origin of the recorded values: PubChem BioAssay (NCI)
